meta.source: patent US20140147868A1

- SYSTEM_TESTED: bovine serum albumin (bovine) (UniProt P02769)
- Sequence (P02769 25-607 limits assumed): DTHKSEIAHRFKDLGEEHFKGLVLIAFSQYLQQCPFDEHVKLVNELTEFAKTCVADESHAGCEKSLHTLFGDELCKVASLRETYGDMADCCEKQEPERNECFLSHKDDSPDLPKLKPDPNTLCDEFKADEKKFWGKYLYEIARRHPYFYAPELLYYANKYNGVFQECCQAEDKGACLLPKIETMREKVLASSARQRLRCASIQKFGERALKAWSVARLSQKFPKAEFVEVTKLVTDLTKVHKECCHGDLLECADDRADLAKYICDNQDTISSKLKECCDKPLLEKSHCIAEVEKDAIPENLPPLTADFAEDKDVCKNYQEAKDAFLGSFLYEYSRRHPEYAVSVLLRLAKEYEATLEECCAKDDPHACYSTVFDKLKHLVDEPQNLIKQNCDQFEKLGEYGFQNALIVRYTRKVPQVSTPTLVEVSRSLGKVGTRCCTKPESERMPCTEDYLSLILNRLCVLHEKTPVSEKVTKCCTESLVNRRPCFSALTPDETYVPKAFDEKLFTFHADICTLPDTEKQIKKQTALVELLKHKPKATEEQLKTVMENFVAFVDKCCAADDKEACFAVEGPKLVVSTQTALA
- ASSAY_TEXT: phage ELISA, BSA only, 10^10 phagemid per well
Positions of bridges follow the written chain, without caps; N, C: chain ends. No end group written: not given here.
Exam item: assign Satisfied to entries whose ELISA (absorbance units) (absorbance units) is below 0.3 and Not satisfied to entries at or above 0.3. Note that a value of exactly 0.3 receives Not satisfied.

-- ask State whether 0.3 exceeds ELISA (absorbance units) (absorbance units) recorded for CSLFYLWDQDRCS (disulfide 1-12 (inferred); also: displayed on phage (phagemid), coat fusion not given here) [phagemid CS1-2p (phage-displayed disulfide cyclized 13 mer peptide)] .
-- reply Not satisfied
